Each recorded value in this set is attributed to ChEMBL document CHEMBL4732102.

Experiment: Selectivity index, ratio of CC50 for human Huh-7 cells to EC50 for Zika virus H/PF/2013 infected in human Huh-7 cells
Assay type: toxicity, cell-based
Settings: read-out: Ratio CC50/EC50
readout: selectivity ratio
The reply should be a number, written without any unit.

Quote selectivity ratio reported for NC(=O)CCNC(=O)c1cc(-c2ccccc2)c(=O)n2c1sc1ccc(OC3CCCCC3)cc12 please.
7.1

Quote selectivity ratio reported for C[C@H](CO)NC(=O)c1cc(-c2ccccc2)c(=O)n2c1sc1ccc(OC3CCCCC3)cc12 please.
2.4

Quote selectivity ratio reported for O=C(c1cc(-c2ccccc2)c(=O)n2c1sc1ccc(OC3CCCCC3)cc12)N1CCCC(O)C1 (racemic) please.
2

Quote selectivity ratio reported for O=C(O)CC(NC(=O)c1cc(-c2ccccc2)c(=O)n2c1sc1ccc(OC3CCCCC3)cc12)c1ccccc1 (racemic) please.
20

Quote selectivity ratio reported for C[C@@H](CO)NC(=O)c1cc(-c2ccccc2)c(=O)n2c1sc1ccc(OC3CCCCC3)cc12 please.
2.6
